We begin with IC50 values for JNK3 (Homo sapiens), as collected from the published literature.

Some compounds with known IC50 results, for comparison:
Cc1cc(OC[C@@H]2CCc3nc(-c4ccc(F)cc4)c(-c4ccnc(NC5CCC5)n4)n32)c2ccccc2n1
25 nM
CCCN(CC)[C@H]1CC[C@@H](c2cnc3[nH]cc(-c4cnn(C)c4)c3c2)CC1
224 nM
COCCNC(=O)c1cc(-n2ncc3cc(Nc4ccccc4Cl)ncc32)cs1
< 200 nM
C#Cc1ccc2c(ccc(=O)n2CC(=O)Nc2scc(Br)c2-c2ncn[nH]2)c1
< 100 nM

Exercise: Report IC50 for Oc1cccc(Cc2c[nH]c3ncc(-c4cccnc4)cc23)c1F please.
Solution: ≤ 10000 nM

Exercise: Continue with CS(=O)(=O)Nc1ccc(Cl)c(C(=O)c2c[nH]c3ncc(-c4cccnc4)cc23)c1F
Solution: ≤ 10000 nM

Exercise: Continue with Cn1cc(-c2c[nH]c3ncc(C4CCC(=O)CC4)cc23)cn1
Solution: 229 nM

Exercise: Continue with N#CCc1cnc(-c2ccc(F)c(C(F)(F)F)c2)n1-c1ccnc(NC2CCCN(C(=O)C3CC3)C2)n1 (centres unmarked)
Solution: 30 to 100 nM
